Experiment: Tmax in dog at 0.5 mg/kg, po
Type: ADME, organism-based, Canis lupus familiaris
Set-up: dose 0.5 mg/kg, route oral
Conditions: in vivo
recorded-endpoint: Tmax (min)
Number only, in min; omit the unit.

Fill in: Tmax of "O=C(N[C@H]1CCC[C@@H]1OCc1ccccc1)C1CCN(c2nc3cc(Cl)ccc3o2)CC1" is ___
30

* * *

Assay: Plasma protein binding in rat
Type: ADME, cell-free
Details: read-out: PPB (converted)
recorded-endpoint: fraction unbound

Look up fraction unbound: "O=C(N[C@H]1CCC[C@@H]1OCc1ccccc1)C1CCN(c2nc3cc(Cl)ccc3o2)CC1"
0.02

* * *

Target: Prostaglandin G/H synthase 2 (Homo sapiens)
Sequence (P35354 whole entry): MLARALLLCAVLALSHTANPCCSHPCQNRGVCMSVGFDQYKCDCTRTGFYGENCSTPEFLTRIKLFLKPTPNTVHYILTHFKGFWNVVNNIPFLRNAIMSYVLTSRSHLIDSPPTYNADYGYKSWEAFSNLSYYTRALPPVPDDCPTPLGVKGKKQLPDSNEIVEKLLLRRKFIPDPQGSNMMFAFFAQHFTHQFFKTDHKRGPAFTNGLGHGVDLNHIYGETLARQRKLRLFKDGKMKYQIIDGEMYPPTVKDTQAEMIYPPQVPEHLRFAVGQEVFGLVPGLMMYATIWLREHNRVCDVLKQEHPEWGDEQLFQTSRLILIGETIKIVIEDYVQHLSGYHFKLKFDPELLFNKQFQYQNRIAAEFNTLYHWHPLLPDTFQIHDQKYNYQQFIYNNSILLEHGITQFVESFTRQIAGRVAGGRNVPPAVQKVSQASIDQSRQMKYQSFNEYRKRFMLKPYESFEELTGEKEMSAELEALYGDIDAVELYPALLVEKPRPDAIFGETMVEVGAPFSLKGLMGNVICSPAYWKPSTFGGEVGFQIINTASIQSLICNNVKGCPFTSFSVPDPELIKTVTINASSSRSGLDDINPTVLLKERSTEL
Assay: Inhibition of COX2 in human fetal fibroblast assessed as SnCl2-induced PGF2alpha production after 40 mins by ELISA
pIC50: −log10 of the molar value.
recorded-endpoint: pIC50

Would you mind telling me what pIC50 value was observed for "O=C(N[C@H]1CCC[C@@H]1OCc1ccccc1)C1CCN(c2nc3cc(Cl)ccc3o2)CC1" ?
< 4.00

// query: "O=C(NC1CCCC1)C1CCN(c2nc3cc(Cl)ccc3o2)CC1"
< 4.00

* * *

Test: Half life in human liver microsomes
Type: ADME, Microsome
recorded-endpoint: half-life (min)
Response body: numeric value in min, unit text excluded.

Consider the molecule shown here: "O=C(N[C@H]1CCC[C@@H]1OCc1ccccc1)C1CCN(c2nc3cc(Cl)ccc3o2)CC1" What is its recorded half-life?
10.8

* * *

Assay: Half life in human hepatocytes
Assay type: ADME, cell-based, Hepatocyte
recorded-endpoint: half-life (h)
Reply with just the number (in h).

Param item = "O=C(N[C@H]1CCC[C@@H]1OCc1ccccc1)C1CCN(c2nc3cc(Cl)ccc3o2)CC1" ; retrieve measured half-life.
1.33
